Reference for the values: ChEMBL document CHEMBL1148032

The reader will find reported IC50 values listed item by item below.
assay.system: Human immunodeficiency virus type 1 reverse transcriptase (Human immunodeficiency virus 1)
assay.comment: Inhibition of DNA dependent DNA polymerase activity of HIV1 BH10 recombinant reverse transcriptase p66/p51 assessed as residual enzyme activity
The reply should contain only the number, in µM.

Observe how each entry below is paired with its result.
compound: CC1(C)CCC[C@]2(C)OC3CC[C@](C)(C4CC[C@]5(C)C4CC[C@]4(C)C6=C(CC54)C(=O)C=CC6=O)[C@]3(C)CCC12 (stereo partly drawn)
recorded.metric: IC50
recorded.result: 4.5
//
compound: C[C@@H]1CC=C2[C@@H](CCC[C@@]2(C)CC[C@@]2(C)C3=CCCC(C)(C)[C@H]3CC[C@@H]2C)[C@]1(C)Cc1cc(O)ccc1O
recorded.metric: IC50
recorded.result: 4.2

Notebook: `CC1=C(Cc2cc(O)ccc2O)[C@]2(C)CCC[C@@](C)(CC[C@@]3(O)[C@H](C)CC[C@@H]4OC(C)(C)CCC[C@@]43C)[C@H]2CC1` , IC50 read as 1.4

----------
assay.system: Human immunodeficiency virus type 1 reverse transcriptase (Human immunodeficiency virus 1) (UniProt Q72547)
assay.comment: Inhibition of DNA dependent DNA polymerase activity of HIV1 BH10 recombinant reverse transcriptase p66/p51 assessed as residual enzyme activity
recorded.metric: Inhibition (µM)
The reply should contain only the number, in µM.

Observe how each entry below is paired with its result.
compound: CC1=C(Cc2cc(O)ccc2O)[C@]2(C)CCC[C@@](C)(CC[C@@]3(O)[C@H](C)CC[C@@H]4OC(C)(C)CCC[C@@]43C)[C@H]2CC1
Inhibition (µM): 14.7
--
compound: CC(=O)CC[C@@H]1[C@](C)(CC[C@@]2(O)[C@H](C)CC[C@@H]3OC(C)(C)CCC[C@@]32C)CCC[C@@]1(C)C(=O)Cc1cc(OS(=O)(=O)O)ccc1OS(=O)(=O)O
Inhibition (µM): 40

Alright, here's another compound for you.
Notebook: C[C@@H]1CC=C2[C@@H](CCC[C@@]2(C)CC[C@@]2(C)C3=CCCC(C)(C)[C@H]3CC[C@@H]2C)[C@]1(C)Cc1cc(OS(=O)(=O)O)ccc1OS(=O)(=O)O [TOXIUSOL SODIUM] , Inhibition read as 41.6

----------
assay.system: Human immunodeficiency virus type 1 reverse transcriptase (Human immunodeficiency virus 1)
assay.comment: Inhibition of RNA dependent DNA polymerase activity of HIV1 BH10 recombinant reverse transcriptase p66/p51 assessed as residual enzyme activity by poly(rA)n.oligo(dT)12-18-directed incorporation of [3H]dTTP
The reader will find reported IC50 values listed item by item below.
The reply should contain only the number, in µM.

compound: CC1=C(Cc2cc(OS(=O)(=O)O)ccc2OS(=O)(=O)O)[C@]2(C)CCC[C@@](C)(CC[C@@]3(O)[C@H](C)CC[C@@H]4OC(C)(C)CCC[C@@]43C)[C@H]2CC1 [SHAAGROCKOL C]
recorded.metric: IC50
recorded.result: 3.3

Reported Human immunodeficiency virus type 1 reverse transcriptase (Human immunodeficiency virus 1) IC50 for item `C[C@@H]1CC=C2[C@@H](CCC[C@@]2(C)CC[C@@]2(C)C3=CCCC(C)(C)[C@H]3CC[C@@H]2C)[C@]1(C)Cc1cc(O)ccc1O` was 2.8

Reported Human immunodeficiency virus type 1 reverse transcriptase (Human immunodeficiency virus 1) IC50 for item CC1(C)CCC[C@]2(C)OC3CC[C@](C)(C4CC[C@]5(C)C4CC[C@]4(C)C6=C(CC54)C(=O)C=CC6=O)[C@]3(C)CCC12 (stereo partly drawn) was 13.2

----------
The reader will find reported Inhibition values listed item by item below.
assay.system: UniProt Q72547
assay.comment: Inhibition of RNA dependent DNA polymerase activity of HIV1 BH10 recombinant reverse transcriptase p66/p51 assessed as residual enzyme activity by poly(rA)n.oligo(dT)12-18-directed incorporation of [3H]dTTP
The reply should contain only the number, in µM.

Observe how each entry below is paired with its result.
molecule: C[C@@H]1CC=C2[C@@H](CCC[C@@]2(C)CC[C@@]2(C)C3=CCCC(C)(C)[C@H]3CC[C@@H]2C)[C@]1(C)Cc1cc(OS(=O)(=O)O)ccc1OS(=O)(=O)O [TOXIUSOL SODIUM]
recorded.result: 4.6
//
molecule: CC1=C(Cc2cc(OS(=O)(=O)O)ccc2OS(=O)(=O)O)[C@]2(C)CCC[C@@](C)(CC[C@@]3(O)[C@H](C)CC[C@@H]4OC(C)(C)CCC[C@@]43C)[C@H]2CC1 [SHAAGROCKOL C]
recorded.result: 9.3
//
molecule: CC1(C)CCC[C@]2(C)OC3CC[C@](C)(C4CC[C@]5(C)C4CC[C@]4(C)c6c(O)ccc(O)c6CC54)[C@]3(C)CCC12 (stereo not given in full) [TOXICOL B]
recorded.result: 11.1
//
molecule: CC1(C)CCC[C@]2(C)OC3CC[C@](C)(C4CC[C@]5(C)C4CC[C@]4(C)C6=C(CC54)C(=O)C=CC6=O)[C@]3(C)CCC12 (stereo not given in full)
recorded.result: 28.6

Notebook: CC(=O)CC[C@@H]1[C@](C)(CC[C@@]2(O)[C@H](C)CC[C@@H]3OC(C)(C)CCC[C@@]32C)CCC[C@@]1(C)C(=O)Cc1cc(OS(=O)(=O)O)ccc1OS(=O)(=O)O [SHAAGROCKOL B] , Inhibition read as 21.2

----------
The reader will find reported log10 Inhibition values listed item by item below.
assay.system: Human immunodeficiency virus type 1 reverse transcriptase (Human immunodeficiency virus 1)
assay.comment: Inhibition of DNA dependent DNA polymerase activity of HIV1 BH10 recombinant reverse transcriptase p66/p51 assessed as residual enzyme activity
Heads up, the numbers here are log10 of Inhibition in µM units.

Observe how each entry below is paired with its result.
molecule: CC1(C)CCC[C@]2(C)OC3CC[C@](C)(C4CC[C@]5(C)C4CC[C@]4(C)c6c(O)ccc(O)c6CC54)[C@]3(C)CCC12 (stereo not given in full)
recorded.result: 1.75

molecule: C[C@@H]1CC=C2[C@@H](CCC[C@@]2(C)CC[C@@]2(C)C3=CCCC(C)(C)[C@H]3CC[C@@H]2C)[C@]1(C)Cc1cc(O)ccc1O
recorded.result: 1.65

molecule: CC1(C)CCC[C@]2(C)OC3CC[C@](C)(C4CC[C@]5(C)C4CC[C@]4(C)c6c(OS(=O)(=O)O)ccc(OS(=O)(=O)O)c6CC54)[C@]3(C)CCC12 (stereo not given in full)
recorded.result: 0.72

molecule: CC1(C)CCC[C@]2(C)OC3CC[C@](C)(C4CC[C@]5(C)C4CC[C@]4(C)C6=C(CC54)C(=O)C=CC6=O)[C@]3(C)CCC12 (stereo not given in full)
recorded.result: 1.74

Alright, here's another molecule for you.
Notebook: `CC1=C(Cc2cc(OS(=O)(=O)O)ccc2OS(=O)(=O)O)[C@]2(C)CCC[C@@](C)(CC[C@@]3(O)[C@H](C)CC[C@@H]4OC(C)(C)CCC[C@@]43C)[C@H]2CC1` , log10 Inhibition read as 0.70

----------
assay.system: Human immunodeficiency virus type 1 reverse transcriptase (Human immunodeficiency virus 1) (UniProt Q72547)
assay.comment: Inhibition of RNA dependent DNA polymerase activity of HIV1 BH10 recombinant reverse transcriptase p66/p51 assessed as residual enzyme activity by poly(rA)n.oligo(dT)12-18-directed incorporation of [3H]dTTP
The reader will find reported Inhibition values listed item by item below.
The reply should contain only the number, in µM.

Observe how each entry below is paired with its result.
molecule: CC1(C)CCC[C@]2(C)OC3CC[C@](C)(C4CC[C@]5(C)C4CC[C@]4(C)c6c(OS(=O)(=O)O)ccc(OS(=O)(=O)O)c6CC54)[C@]3(C)CCC12 (stereo partly drawn)
Inhibition (µM): 6.5
--
molecule: C[C@@H]1CC=C2[C@@H](CCC[C@@]2(C)CC[C@@]2(C)C3=CCCC(C)(C)[C@H]3CC[C@@H]2C)[C@]1(C)Cc1cc(O)ccc1O
Inhibition (µM): 11.1

Notebook: `CC1=C(Cc2cc(O)ccc2O)[C@]2(C)CCC[C@@](C)(CC[C@@]3(O)[C@H](C)CC[C@@H]4OC(C)(C)CCC[C@@]43C)[C@H]2CC1` , Inhibition read as 18.1

----------
The reader will find reported IC50 values listed item by item below.
assay.system: Human immunodeficiency virus type 1 reverse transcriptase (Human immunodeficiency virus 1, UniProt Q72547)
assay.comment: Inhibition of DNA dependent DNA polymerase activity of HIV1 BH10 recombinant reverse transcriptase p66/p51 assessed as residual enzyme activity
The reply should contain only the number, in µM.

molecule: CC1=C(Cc2cc(OS(=O)(=O)O)ccc2OS(=O)(=O)O)[C@]2(C)CCC[C@@](C)(CC[C@@]3(O)[C@H](C)CC[C@@H]4OC(C)(C)CCC[C@@]43C)[C@H]2CC1
recorded.metric: IC50
unit.tag: µM
recorded.result: 0.8

molecule: C[C@@H]1CC=C2[C@@H](CCC[C@@]2(C)CC[C@@]2(C)C3=CCCC(C)(C)[C@H]3CC[C@@H]2C)[C@]1(C)Cc1cc(OS(=O)(=O)O)ccc1OS(=O)(=O)O [TOXIUSOL SODIUM]
recorded.metric: IC50
unit.tag: µM
recorded.result: 6.6

molecule: CC1(C)CCC[C@]2(C)OC3CC[C@](C)(C4CC[C@]5(C)C4CC[C@]4(C)c6c(O)ccc(O)c6CC54)[C@]3(C)CCC12 (stereo not given in full)
recorded.metric: IC50
unit.tag: µM
recorded.result: 8.2

Notebook: CC1(C)CCC[C@]2(C)OC3CC[C@](C)(C4CC[C@]5(C)C4CC[C@]4(C)c6c(OS(=O)(=O)O)ccc(OS(=O)(=O)O)c6CC54)[C@]3(C)CCC12 (stereo not given in full) , IC50 read as 2.7

Notebook: `CC(=O)CC[C@@H]1[C@](C)(CC[C@@]2(O)[C@H](C)CC[C@@H]3OC(C)(C)CCC[C@@]32C)CCC[C@@]1(C)C(=O)Cc1cc(OS(=O)(=O)O)ccc1OS(=O)(=O)O` , IC50 read as 6.7
